So I've got a bunch of molecules here, and I need their pKi values.
# TGT: μ-opioid receptor (Rattus norvegicus)
# Construct: the forebrains are homogenized in Tris buffer in a Teflon®-glass homogenizer; from tissue; host or cells: forebrain of male Wistar rats (particulate membrane preparation)
# Sequence (P33535 whole entry): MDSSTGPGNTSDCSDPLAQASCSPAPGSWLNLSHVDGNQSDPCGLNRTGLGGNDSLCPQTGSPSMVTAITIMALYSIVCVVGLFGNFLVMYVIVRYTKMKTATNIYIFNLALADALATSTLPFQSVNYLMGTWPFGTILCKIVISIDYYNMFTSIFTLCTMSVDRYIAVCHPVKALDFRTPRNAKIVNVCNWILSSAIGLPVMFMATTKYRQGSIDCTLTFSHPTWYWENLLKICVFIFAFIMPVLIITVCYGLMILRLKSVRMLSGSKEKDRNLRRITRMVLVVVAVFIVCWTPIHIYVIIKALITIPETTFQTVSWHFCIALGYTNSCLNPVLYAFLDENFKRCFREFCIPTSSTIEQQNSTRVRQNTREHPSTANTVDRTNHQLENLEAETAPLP
# PROCEDURE TEXT: Rat brain μ-opioid receptor binding assay ([3H]DAMGO)
# MEASUREMENT PARAMETERS: 10 nM solutions of the compounds, read-out: MOR binding Ki
# Method: Rat Brain μ-Opioid Receptor Binding Assay Male, Wistar rats (150-250 g, VAF, Charles River, Kingston, N.Y.) are killed by cervical dislocation and their brains removed and placed immediately in ice cold Tris HCl buffer (50 mM, pH 7.4). […] The tubes and filters are rinsed three times with 4 mL of 10 mM HEPES (pH 7.4) and the radioactivity associated with the filter circles determined using Formula 989 scintillation fluid (New England Nuclear, Boston, Mass.) in a scintillation counter. […]
Just the number, please; pKi means minus log10 of the concentration in mol/L.

Field pKi (entry CCNC(=O)c1ccc(C(=C2CC3CCC(C2)N3Cc2nccs2)c2ccc(C(N)=O)cc2)cc1 [Cpd 188] ) reads 6.31

Field pKi (entry CCNC(=O)c1ccc(C(Br)=C2CC3CCC(C2)N3Cc2ccc(NC(C)=O)cc2)cc1 [Cpd 21] ) reads 7.32

Field pKi (entry CCNC(=O)c1ccc(C=C2CC3CCC(C2)N3Cc2ccncc2)cc1 [Cpd 58] ) reads 5.93

Field pKi (entry CCNC(=O)c1ccc(C=C2CC3CCC(C2)N3Cc2sc3ccccc3c2C)cc1 [Cpd 78] ) reads 6.57

Field pKi (entry CCNC(=O)c1ccc(C(=C2CC3CCC(C2)N3Cc2ccco2)c2nnn[nH]2)cc1 [Cpd 204] ) reads 4.60

----------
# TGT: μ-opioid receptor (Rattus norvegicus)
# Construct: the forebrains are homogenized in Tris buffer in a Teflon®-glass homogenizer; from tissue; host or cells: forebrain of male Wistar rats (particulate membrane preparation)
# PROCEDURE TEXT: Rat brain μ-opioid receptor binding assay ([3H]DAMGO)
# MEASUREMENT PARAMETERS: 10 nM solutions of the compounds, read-out: MOR binding Ki
OBSERVED PROPERTY: pKi
Just the number, please; pKi means minus log10 of the concentration in mol/L.

Field pKi (entry `CCNC(=O)c1ccc(C(=C2CC3CCC(C2)N3Cc2ccc3ccccc3n2)c2ccccn2)cc1` ) reads 6.91

Field pKi (entry CCNC(=O)c1ccc(C(=C2CC3CCC(C2)N3Cc2ccsc2)c2ccc(CO)cc2)cc1 (single isomer, unassigned) ) reads 7.10

Field pKi (entry `CCNC(=O)c1ccc(C=C2CC3CCC(C2)N3Cc2ccc(Cl)s2)cc1` ) reads 6.45

Field pKi (entry `CCNC(=O)c1ccc(C(=C2CC3CCC(C2)N3C(=O)OCC)c2ccc(O)c(OC)c2)cc1` ) reads 6.15

Field pKi (entry CCNC(=O)c1ccc(C(=C2CC3CCC(C2)N3CC=C(C)C)c2cccc(C(=O)O)c2)cc1 (single isomer, unassigned) [Cpd 45] ) reads 7.63

Field pKi (entry `CCNC(=O)c1ccc(C=C2CC3CCC(C2)N3CCc2ccccc2)cc1` ) reads 8.07

Field pKi (entry `CCNC(=O)c1ccc(C(Br)=C2CC3CCC(C2)N3Cc2sccc2C)cc1` ) reads 7.16

Field pKi (entry `CCNC(=O)c1ccc(C(=C2CC3CCC(C2)N3Cc2ccoc2)c2ccc([N+](=O)[O-])cc2)cc1` ) reads 8.84

Field pKi (entry `CCNC(=O)c1ccc(C(=C2CC3CCC(C2)N3Cc2ccccn2)c2ccc(C(N)=O)cc2)cc1` ) reads 5.30

Field pKi (entry `CCNC(=O)c1ccc(C(=C2CC3CCC(C2)N3Cc2ccoc2)c2ccc3c(c2)OCO3)cc1` ) reads 8.97

Field pKi (entry `CCNC(=O)c1ccc(C(=C2CC3CCC(C2)N3Cc2ccc(C(=O)O)o2)c2ccccc2)cc1` ) reads 6.38

Field pKi (entry `CCNC(=O)c1ccc(C(=C2CC3CCC(C2)N3CCc2ccccc2)c2ccc(CCC(=O)O)cc2)cc1` ) reads 6.50

Field pKi (entry `CCCCN1C2CCC1CC(=Cc1ccc(C(=O)NCC)cc1)C2` ) reads 6.58

Field pKi (entry `CCNC(=O)c1ccc(C(=C2CC3CCC(C2)N3C=O)c2cccnc2)cc1` ) reads 5.00
